Form field: EC50, cAMP (one value per entry).
Target: T1, human GIP receptor (human, UniProt P48546 22-466)
T1 sequence (looked up): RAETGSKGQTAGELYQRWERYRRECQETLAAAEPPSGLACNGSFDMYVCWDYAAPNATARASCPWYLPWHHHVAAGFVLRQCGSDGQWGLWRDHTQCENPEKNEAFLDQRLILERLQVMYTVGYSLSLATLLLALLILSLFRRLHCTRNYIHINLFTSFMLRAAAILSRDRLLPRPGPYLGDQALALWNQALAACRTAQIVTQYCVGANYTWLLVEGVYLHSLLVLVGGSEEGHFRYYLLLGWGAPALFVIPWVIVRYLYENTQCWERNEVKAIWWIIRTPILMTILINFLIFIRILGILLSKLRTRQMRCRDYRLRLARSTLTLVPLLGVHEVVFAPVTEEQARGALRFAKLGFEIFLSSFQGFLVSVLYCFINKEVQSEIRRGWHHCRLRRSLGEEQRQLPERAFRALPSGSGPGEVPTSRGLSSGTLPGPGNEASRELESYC
Assay: cell-based or functional assay
TEST READOUT: EC50, cAMP

[[record]]
binder = "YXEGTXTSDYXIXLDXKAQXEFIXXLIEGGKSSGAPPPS (Aib2, αMeF(2F)6, Aib11, αMeL13, Orn16, Aib20, D-Glu24, αMeY25, K17 and K31: K(AEEA2-(γ-Glu)-CO-(CH2)12-CO2H), C-terminal NH2) [Example 50]"
readout_value = "0.0168 nM"

[[record]]
binder = "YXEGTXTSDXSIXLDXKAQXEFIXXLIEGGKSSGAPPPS (Aib2, αMeF(2F)6, 4TAA10, αMeL13, Orn16, Aib20, D-Glu24, αMeY25, K17 and K31: K(AEEA2-(γ-Glu)-CO-(CH2)12-CO2H), C-terminal NH2) [Example 144]"
readout_value = "0.0193 nM"

[[record]]
binder = "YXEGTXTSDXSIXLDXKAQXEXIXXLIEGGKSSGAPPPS (Aib2, αMeF(2F)6, 4Pal10, αMeL13, Orn16, Aib20, Bzt22, D-Glu24, αMeY25, K17 and K31: K(AEEA2-(γ-Glu)-CO-(CH2)12-CO2H), C-terminal NH2) [Example 147]"
readout_value = "0.0229 nM"

[[record]]
binder = "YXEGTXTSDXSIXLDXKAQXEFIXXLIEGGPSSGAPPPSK (Aib2, αMeF(2F)6, 4Pal10, αMeL13, Orn16, Aib20, D-Glu24, αMeY25, K17 and K40: K(AEEA2-(γ-Glu)-(4-(4-tert-butylphenyl)butanoyl)), C-terminal NH2) [Example 135]"
readout_value = "0.0184 nM"

[[record]]
binder = "YXEGTXTSDXSIXLDXKAQXEFIXKLIEGGPSSGAPPPS (Aib2, αMeF(2F)6, 4Pal10, αMeL13, Orn16, Aib20, D-Glu24, K17 and K25: K(AEEA2-(γ-Glu)-(4-(4-tert-butylphenyl)butanoyl)), C-terminal NH2) [Example 67]"
readout_value = "0.00795 nM"

[[record]]
binder = "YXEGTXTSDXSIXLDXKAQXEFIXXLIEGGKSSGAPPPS (Aib2, αMeF(2F)6, 4Pal10, αMeL13, Orn16, Aib20, D-Glu24, αMeY25, K17 and K31: K(AEEA-(εK)-(γ-Glu)-CO-(CH2)12-CO2H), C-terminal NH2) [Example 35]"
readout_value = "0.0162 nM"

[[record]]
binder = "YXEGTXTSDKSIXLDXIAQXKFIXXLIEGGPSSGAPPPS (Aib2, αMeF(2F)6, αMeL13, Orn16, Aib20, D-Glu24, αMeY25, K10 and K21: K(AEEA2-(γ-Glu)-CO-(CH2)12-CO2H), C-terminal NH2) [Example 105]"
readout_value = "0.0366 nM"

[[record]]
binder = "YXEGTXTSDXSIXLDXKAQXGFIXXLIEGGKSSGAPPPS (Aib2, αMeF(2F)6, 4Pal10, αMeL13, Orn16, Aib20, D-Glu24, αMeY25, K17 and K31: K(AEEA2-(γ-Glu)-CO-(CH2)12-CO2H), C-terminal NH2) [Example 103]"
readout_value = "0.0305 nM"

[[record]]
binder = "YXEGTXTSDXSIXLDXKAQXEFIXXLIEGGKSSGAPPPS (Aib2, αMeF(2F)6, 4Pal10, αMeL13, Orn16, Aib20, D-Glu24, αMeY25, K17 and K31: K(AEEA2-(γ-Glu)-CO-(CH2)10-CH3), C-terminal NH2) [Example 5]"
readout_value = "0.00585 nM"

[[record]]
binder = "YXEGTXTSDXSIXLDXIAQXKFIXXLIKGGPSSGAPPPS (Aib2, αMeF(2F)6, 4Pal10, αMeL13, Orn16, Aib20, D-Glu24, αMeY25, K21 and K28: K(AEEA2-(γ-Glu)-CO-(CH2)12-CO2H), C-terminal NH2) [Example 73]"
readout_value = "0.0207 nM"

[[record]]
binder = "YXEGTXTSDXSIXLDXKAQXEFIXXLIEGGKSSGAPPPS (Aib2, αMeF(2F)6, 4Pal10, αMeL13, Orn16, Aib20, D-Glu24, αMeY25, K17 and K31: K(AEEA-(γ-Glu)-CO-(CH2)12-CO2H), C-terminal NH2) [Example 11]"
readout_value = "0.0135 nM"

[[record]]
binder = "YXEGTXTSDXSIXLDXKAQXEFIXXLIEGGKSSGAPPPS (Aib2, αMeF(2F)6, 4Pal10, αMeL13, Orn16, Aib20, D-Glu24, αMeY25, K17 and K31: K(AEEA2-(γ-Glu)-CO-(CH2)12-CH3), C-terminal NH2) [Example 8]"
readout_value = "0.00307 nM"

[[record]]
binder = "YXEGTXTSDVSIXLDXKAQXEXIKXLIEGGPSSGAPPPS (Aib2, αMeF(2F)6, αMeL13, Orn16, Aib20, αMeF22, αMeF25, K17 and K24: K(AEEA2-(γ-Glu)-CO-(CH2)12-CO2H), C-terminal NH2) [Example 122]"
readout_value = "0.064 nM"

